// provenance: patent US10112899B2

Measured pIC50 by item
System: HIV in the HTLV-1 transformed cell line MT-4
Test: organism not typed
Format: cell-based
Conditions: MT4, 96 h, MT-4 cells; luciferase/cell titer glo readout after 96 hours; 10 point dose response
pIC50 (log units): -log10 of the concentration in mol/L.

Example compounds with recorded pIC50:
>>> value_measured("Cc1ccc(-c2c(C)c3c(c(C)c2[C@H](OC(C)(C)C)C(=O)O)CN(S(=O)(=O)N2CCOCC2)C3)cc1")
7.74
>>> value_measured("Cc1cncc(C(=O)N2Cc3c(C)c(-c4cc(F)c5c(c4C)CCCO5)c([C@H](OC(C)(C)C)C(=O)O)c(C)c3C2)c1 (atropisomer, axis not shown; (M))")
8.30
>>> value_measured("Cc1ccc(-c2c(C)c3c(c(C)c2[C@H](OC(C)(C)C)C(=O)O)CN(C(=O)c2cnc(-c4ccccc4)o2)C3)cc1")
6.53

API: the following record is the query input.
Query string: Give pIC50 for the following compound: `Cc1ccc(-c2c(C)c3c(c(C)c2[C@H](OC(C)(C)C)C(=O)O)CN(C(=O)c2cccc4c2OCO4)C3)cc1`
Result string: 8.30
